System: T-47D breast
METHOD: NCI tumour cell line growth inhibition, 48 h
Reported values of TGI for individual entries

Recorded results for 6 molecules are shown here.
{"columns": ["MOLECULE", "TGI"],
 "data": [
  ["O=C1NC(Nc2ccccc2)=N/C1=C\\c1c(Cl)cccc1Cl", "> 100 µM"],
  ["Cc1ccc(S(=O)C[C@](NC(=O)OCc2ccccc2)(Sc2ccccc2)C(F)F)cc1 (stereo partly drawn)", "40 µM"],
  ["O=c1[nH]ncc2[nH]c3c4ccccc4ccc3c12", "> 100 µM"],
  ["COC(=O)CCC1(CCC(=O)OC)CCCCCCC(CCC(=O)OC)(CCC(=O)OC)C(=O)C1=O", "> 100 µM"],
  ["N#Cc1c(=O)c2ccccc2n2ccccc12", "> 100 µM"],
  ["Cc1ccc(O)c(C2=CC3=NNC(=O)C3C(c3cccc(Cl)c3)C2)c1 (stereo not drawn)", "> 100 µM"]
]}

What measured TGI goes with COC(=O)C1Cc2c(OC)ccc(OC)c2C(O)C1C(=O)OC (stereo not drawn) ?
> 100 µM

What measured TGI goes with CCN1[C@@H](C(=O)NC23CCC(C(=O)O)(CC2)CC3)[C@H](c2cccc(Cl)c2F)[C@]2(C(=O)Nc3cc(Cl)ccc32)C12CCCCC2 ?
19.4 µM

----------
Tested on: SK-MEL-2 melanoma
METHOD: NCI tumour cell line growth inhibition, 48 h
RESULT TYPE: TGI (µM)
Dear colleague, please return just the value in µM, with no unit written.

Recorded results for 3 compounds are shown here.
{"columns": ["COMPOUND", "UNIT SPEC", "TGI"],
 "data": [
  ["Cc1ccc(Cl)cc1N=NC(=O)NNc1cc(Cl)ccc1C", "µM", 32.8],
  ["COc1ccc2c(c1)CN([C@@H](C)[C@H]1CC[C@H]3[C@@H]4CC[C@H]5C[C@@H](O)CC[C@]5(C)[C@H]4CC[C@]13C)CO2", "µM", 3.83],
  ["FC(F)(F)c1ccc2c(c1)nc1n2C(c2c(Cl)cccc2Cl)SC1 (centres undefined)", "µM", 40.8]
]}

What measured TGI goes with O=C(O)c1nc2ccc(C(F)(F)F)cc2nc1Nc1ccc(Cl)c(Cl)c1 ?
11.2

What measured TGI goes with C=C1C(=O)O[C@H]2[C@H]1CC/C(COC(=O)N[C@H]1C[C@H](O[C@H]3C[C@](O)(C(=O)CO)Cc4c(O)c5c(c(O)c43)C(=O)c3c(OC)cccc3C5=O)O[C@@H](C)[C@H]1O)=C\CC[C@@]1(C)O[C@@H]21 ?
17

What measured TGI goes with C=C1C(=O)C23[C@H](O)C1CC[C@H]2[C@]12COC3(O)[C@@H](O)[C@@H]1C(C)(C)CC[C@@H]2O ?
11

What measured TGI goes with O=C1/C(=C\c2ccc(Br)cc2)CCCc2ccccc21 ?
39.2

What measured TGI goes with CCc1ccc2[nH]c(O)c(C3=Nc4ccccc4C3=O)c2c1 ?
43.7

What measured TGI goes with Clc1ccc2c(NCCCCN3OC3c3ccccc3)ccnc2c1 (centres undefined) ?
11.1

What measured TGI goes with C/C(=C(/c1ccccc1)c1ccc(OCC(O)CNCCN2CCOCC2)cc1)c1ccccc1 (centres undefined) ?
6.24

What measured TGI goes with O=C(/C=C1\Sc2ccccc2N=C1CC(=O)c1ccccc1)c1ccccc1 ?
87.2

----------
Tested on: HCT-15 colon
METHOD: NCI tumour cell line growth inhibition, 48 h
RESULT TYPE: TGI

{"columns": ["COMPOUND", "TGI"],
 "data": [
  ["C=C1C(=O)OC2C1CCC(C)C1(O)C=CC(=O)C21C (stereo unspecified)", "> 10 µM"],
  ["CC12CCCCC1=C(F)C(F)(F)S2 (stereo unspecified)", "76.7 µM"],
  ["O=c1cc(-c2ccccc2)[nH]c2cc(F)cc(F)c12", "> 100 µM"],
  ["O=c1[nH]c(SCc2cccc([N+](=O)[O-])c2)nc2nc[nH]c12", "> 100 µM"],
  ["NC(=O)CSc1c2cc(O)ccc2nc2ccc(O)cc12", "> 10 µM"]
]}

// next entry
What measured TGI goes with COc1ccccc1-c1cc(=O)c2cc(C)c(C)c(C(=O)O)c2o1 ?
> 100 µM

----------
Tested on: K-562 leukemia
METHOD: NCI tumour cell line growth inhibition, 48 h; in the data active means GI50 below about 0.43 µM; inactive means the rest
Give one outcome, nothing more. List: True = active, False = inactive

Consider the worked cases shown below.
{"columns": ["COMPOUND", "QUALITATIVE LABEL"],
 "data": [
  ["Cc1ccc(S(=O)(=O)c2nc(-c3ccccc3)oc2S(C)(=O)=O)cc1", "False"],
  ["COc1cc(C2=NN(C(C)=O)C(c3cc(OC)c(OC)c(OC)c3)C2)ccc1O (centres undefined)", "True"],
  ["COc1ccc(-c2nc(-c3nc4cc(Cl)c(F)cc4[nH]3)c3ccccn23)cc1", "False"],
  ["Cn1c(=O)n(C)c2cc(CNCCNc3ccnc4cc(Cl)ccc34)ccc21", "False"],
  ["COc1ccc(-c2cnnn2-c2nonc2-n2cccc2)cc1OC", "False"]
]}

Attention now turns to another entry.
Can you look up the reported call for COc1cc(OCc2cccc(-c3ccccc3)c2C)cc(OC)c1CN1CCCCC1C(=O)NCCOCCOCCN (centres undefined) for me?
False

----------
Test system: SK-OV-3 ovarian
METHOD: NCI tumour cell line growth inhibition, 48 h; in the data active means GI50 below about 0.43 µM; inactive means the rest
Give one outcome, nothing more. List: 1 = active, 0 = inactive

Consider the worked cases shown below.
{"columns": ["COMPOUND", "QUALITATIVE LABEL"],
 "data": [
  ["COc1ccc(C(=O)c2sc3nc(-c4ccccc4OC)ccc3c2N)cc1OC", 0],
  ["Cc1cc(NCc2cc(Nc3ccnc4cc(Cl)ccc34)ccc2F)nc(N2CCOCC2)n1", 0],
  ["COc1cc(C2=NN(C(C)=O)C(c3cc(OC)c(OC)c(OC)c3)C2)ccc1O (centres undefined)", 1]
]}

Attention now turns to another entry.
Can you look up the reported call for CCOc1cc(/C=C/C(=O)C(C(=O)/C=C/c2ccc(OC(=O)CNc3nc4ccccc4[nH]3)c(OCC)c2)C(=O)CNc2nc3ccccc3[nH]2)ccc1OC(=O)CNc1nc2ccccc2[nH]1 for me?
0

----------
Reported values of TGI for individual entries
Tested on: SK-MEL-2 melanoma
METHOD: NCI tumour cell line growth inhibition, 48 h

{"columns": ["MOLECULE", "RESULT TYPE", "VALUE MEASURED"],
 "data": [
  ["C=C1C(=O)O[C@H]2[C@H]1CC/C(Cn1cc(-c3ccc(N)cc3)nn1)=C\\CC[C@@]1(C)O[C@@H]21", "TGI", "28.9 µM"],
  ["COc1ccc(Nc2nc(Nc3cc(C)[nH]n3)c3cc(OC)c(OC)cc3n2)cc1", "TGI", "3.56 µM"],
  ["N#Cc1c2ccc([N+](=O)[O-])cc2c(=O)n2c1[nH]c1ccc(C(F)(F)F)cc12", "TGI", "> 100 µM"]
]}

What measured TGI goes with O=c1[nH]c(SCc2cccc([N+](=O)[O-])c2)nc2nc[nH]c12 ?
> 100 µM

What measured TGI goes with CO[C@H]1/C=C/O[C@@]2(C)Oc3c(C)c(O)c4c(O)c(c(/C=N/N5CCN(C)CC5)c(O)c4c3C2=O)NC(=O)/C(C)=C\C=C\[C@H](C)[C@H](O)[C@@H](C)[C@@H](O)[C@@H](C)[C@H](OC(C)=O)[C@@H]1C ?
> 100 µM

What measured TGI goes with COc1cccc(CNc2ncnc3c2ncn3C2OC(CO)C(O)C2O)c1O (stereo not drawn) ?
> 100 µM

What measured TGI goes with O=C1C[C@@]23CCC4(CC2CCC[C@H]3O1)OCCO4 (stereo partly drawn) ?
> 100 µM

What measured TGI goes with CCC(=O)N/S(=N/S(=O)(=O)c1ccccc1)C(Cl)(Cl)Cl (stereo not drawn) ?
> 100 µM

----------
Reported values of TGI for individual entries
Test system: TK-10 renal
METHOD: NCI tumour cell line growth inhibition, 48 h
Dear colleague, please return just the value in µM, with no unit written.

{"columns": ["ITEM SMILES", "UNIT SPEC", "VALUE MEASURED"],
 "data": [
  ["Cc1cc(CCl)c(C)cc1CCl", "µM", 5.05],
  ["O=[N+]([O-])C(/C(Cl)=C(\\Cl)Br)=C(/Cl)SCc1ccccc1", "µM", 10.8],
  ["COc1cccc(-c2cc(=O)c3cc4c(cc3[nH]2)OCO4)c1", "µM", 54.5]
]}

Reported TGI for TK-10 renal, given COc1ccc(C2=[S+]C(c3ccccc3)(c3ccccc3)c3ccccc32)cc1 ?
73.3

----------
Tested on: COLO 205 colon
METHOD: NCI tumour cell line growth inhibition, 48 h
RESULT TYPE: TGI (µM)
Dear colleague, please return just the value in µM, with no unit written.

Recorded results for 6 molecules are shown here.
{"columns": ["ITEM SMILES", "TGI / µM"],
 "data": [
  ["N#Cc1c(Cl)c2cccnc2n2c1nc1ccccc12", 4.02],
  ["O=C(O)c1nc2ccc(C(F)(F)F)cc2nc1Nc1ccc(Cl)c(Cl)c1", 25.7],
  ["Cc1ccc(S(=O)(=O)c2nc(-c3ccccc3)oc2S(C)(=O)=O)cc1", 3.21],
  ["O=C1C(CO)=C[C@H](O)[C@H]2O[C@@H]12", 209],
  ["COc1ccc(-c2c(C#N)c(N)nc(N3CCOCC3)c2C#N)cc1", 26.5],
  ["ClCc1cccc(Cn2cnc3c(Cl)nc(Cl)nc32)c1", 5.39]
]}

What measured TGI goes with COc1ccc(C2=[S+]C(c3ccccc3)(c3ccccc3)c3ccccc32)cc1 ?
31.3

What measured TGI goes with O=[N+]([O-])C(/C(Cl)=C(\Cl)Br)=C(/Cl)SCc1ccccc1 ?
4.86

What measured TGI goes with Cn1c(=O)n(C)c2cc(CNCCNc3ccnc4cc(Cl)ccc34)ccc21 ?
35.8
